biological target: KRas G12C (Homo sapiens, UniProt P01116, G12C); construct: NCI-H358 cells (ATCC CRL-5807) express KRas G12C; assay: Inhibition of KRas G12C-dependent cell growth: Phospho-ERK in NCI-H358 cells; conditions: NCI-H358 cells expressing KRas G12C; Phospho-ERK (Thr202/Tyr204) normalized to GAPDH; 3 hours compound; 4 parameter fit
Sequence (P01116 1-188 isoform P01116-2 G12C): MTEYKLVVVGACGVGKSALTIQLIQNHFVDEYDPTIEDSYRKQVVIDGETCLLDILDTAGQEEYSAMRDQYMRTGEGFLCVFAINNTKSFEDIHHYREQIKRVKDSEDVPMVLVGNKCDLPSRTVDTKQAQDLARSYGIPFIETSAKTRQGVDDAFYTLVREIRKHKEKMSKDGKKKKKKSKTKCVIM
// reported pIC50 per item
Note: pIC50 values are expressed as the negative base-10 logarithm of concentration in M.

>>> print(df.to_string())
                                smiles_text                              study_target  data_value
0  C=CC(=O)N1CCN(c2nc(C(F)(F)F)nc3c(F)c(-c4cccc5ccc(F)c(Cl)c45)ncc23)C[C@@H]1CC#N  KRas G12C (Homo sapiens, UniProt P01116, G12C)        5.47
1  COC/C=C/C(=O)N1CCN(c2nc(OC[C@@H]3C[C@@H](OC)CN3C)nc3c(F)c(-c4cccc5cccc(C)c45)ncc23)C[C@@H]1CC#N  KRas G12C (Homo sapiens, UniProt P01116, G12C)        7.24

# next molecule below
Record lookup: for KRas G12C (Homo sapiens, UniProt P01116, G12C), what pIC50 belongs to C=CC(=O)N1CCN(c2nc(OC[C@@H]3CCCN3C)nc3c(F)c(-c4cccc5ccc(F)c(Cl)c45)ncc23)C[C@@H]1C ?
7.30

----------
target: KRas G12C (Homo sapiens, UniProt P01116, G12C); construct: NCI-H358 cells (ATCC CRL-5807) express KRas G12C; experiment: Inhibition of KRas G12C-dependent cell growth: Phospho-ERK in NCI-H358 cells; settings: NCI-H358 cells expressing KRas G12C; Phospho-ERK (Thr202/Tyr204) normalized to GAPDH; 3 hours compound; 4 parameter fit
Listed below: IC50 values for each entry.
Unit nM implied. Number only.

>>> print(df.to_string())
                                   molecule  test_readout  data_value
0  C=C(F)C(=O)N1CCN(c2nc(OCCNS(C)(=O)=O)nc3c(F)c(-c4cccc5ccc(F)c(Cl)c45)ncc23)C[C@@H]1CC#N          IC50         976
1  C=C(F)C(=O)N1CCN(c2nc(OC[C@@H]3CCCN3C(C)C)nc3c(F)c(-c4cccc5cccc(Cl)c45)ncc23)C[C@@H]1CC#N          IC50          42

What does the record list as IC50 for C=CC(=O)N1CC[C@@H]2[C@H]1CN2c1nc(N)nc2c(F)c(-c3cccc4ccc(F)c(Cl)c34)ncc12 ?
287

Quick one: IC50 for C/C=C/C(=O)N1CC[C@@H]2[C@H]1CN2c1ncnc2c(F)c(-c3cccc4ccc(F)c(Cl)c34)ncc12 ?
10000

# get_value(readout='IC50', item= C=CC(=O)N1CCN(c2nc(OC[C@@H]3CCCN3C)nc3c(F)c(-c4cccc5ccc(F)c(Cl)c45)ncc23)CC1C(F)F (some centres unmarked) )
158

----------
biological target: KRas G12C (Homo sapiens, UniProt P01116, G12C); construct: NCI-H358 cells (ATCC CRL-5807) express KRas G12C; assay: Inhibition of KRas G12C-dependent cell growth: Phospho-ERK in NCI-H358 cells; settings: NCI-H358 cells expressing KRas G12C; Phospho-ERK (Thr202/Tyr204) normalized to GAPDH; 3 hours compound; 4 parameter fit
Known log10(IC50) of a selection of compounds
Hey, these are logged values: log10 of IC50, nM being the unit before logging.

Sample answers from the record:
>>> print(df.to_string())
                                   compound  data_value
0  C=C(F)C(=O)N1CCN(c2nc(OCCCN3C[C@@H]4C[C@H]3CO4)nc3c(F)c(-c4cccc5ccc(F)c(Cl)c45)ncc23)C[C@@H]1CC#N [Example 129]        1.86
1  C=CC(=O)N1CC[C@@H]2[C@H]1CN2c1ncnc2c(F)c(-c3cccc4cccc(Cl)c34)ncc12 [Example 284]        2.75
2  C=C(F)C(=O)N1CCN(c2nc(OC[C@H]3[C@@H](F)CCN3C)nc3c(F)c(-c4cccc5ccc(F)c(Cl)c45)ncc23)C[C@@H]1CC#N [Example 177]        1.71
3  C=CC(=O)N1CC[C@@H]2[C@H]1CN2c1ncnc2cc(-c3cccc4ccc(F)c(Cl)c34)ncc12 [Example 254]        3.33
4  C=CC(=O)N1CCC12CN(c1ncnc3c(F)c(-c4cccc5ccc(F)c(Cl)c45)ncc13)C2 [Example 246]        3.81

Lookup: log10(IC50) / KRas G12C (Homo sapiens, UniProt P01116, G12C) / C=C(F)C(=O)N1CCN(c2nc(OC[C@@]34CCCN3C[C@H](F)C4)nc3c(F)c(-c4cccc5ccc(F)c(Cl)c45)ncc23)C[C@@H]1CC#N [Example 229]
0.00
